Biological target: T1, 4H2277-AA
T1 chain: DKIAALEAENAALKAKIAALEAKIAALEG
Assay: two-hybrid library CCmax;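 note: natural log of median RNA to DNA barcode read ratio; higher means stronger binding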
Conditions: mean of both orientations
READOUT KIND: interaction score

> print(dat)
                                     binder       readout.kind  quantitative.result
1  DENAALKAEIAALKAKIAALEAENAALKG [4H1636-AA]  interaction score                -1.87
2  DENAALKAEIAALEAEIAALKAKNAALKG [4H1552-AA]  interaction score                 -1.3
3  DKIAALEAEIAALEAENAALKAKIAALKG [4H2078-AA]  interaction score                -1.09
4  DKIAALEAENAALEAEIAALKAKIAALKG [4H2190-AA]  interaction score                 1.06
5  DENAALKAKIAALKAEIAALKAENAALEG [4H1867-AA]  interaction score                -1.23
6  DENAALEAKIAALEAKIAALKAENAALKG [4H1324-AA]  interaction score                -1.35
